Test: HPLC measurement of the solubility of the anti-estrogen in an aqueous solution of 2-hydroxypropyl cyclodextrin
Assay type: physicochemical
Settings: aqueous β-hpc solution, 250 mg/ml; 250 mg β-HPC/ml of aqueous soln.; room temperature; read-out: Toremifene solubility (mg of toremifene / ml of cyclodextrin-water soln.)
Protocol: A weighed amount of 2-hydroxypropyl cyclodextrin was dissolved into distilled water by shaking with a shaker. The so formed clear solution was equilibrated with a large excess of antiestrogen at the boiling point. […] The solution was kept overnight at room temperature and the excess of precipitated antiestrogen was removed by centrifugation. […]
value-type: solubility (mg/mL)
Give bare numbers, in mg/mL.

Qu. Looking for the measured solubility of `CN(C)CCOc1ccc(/C(=C(/CCCl)c2ccccc2)c2ccccc2)cc1` , can you help?
Ans. 53

* * *

Assay: HPLC measurement of the solubility of the anti-estrogen in an aqueous solution of 2-hydroxypropyl cyclodextrin
Type: physicochemical
Details: aqueous γ-hpc solution, 250 mg/ml; 250 mg Γ-HPC/ml of aqueous soln.; room temperature; read-out: Toremifene solubility (mg of toremifene / ml of cyclodextrin-water soln.)
Protocol: A weighed amount of 2-hydroxypropyl cyclodextrin was dissolved into distilled water by shaking with a shaker. The so formed clear solution was equilibrated with a large excess of antiestrogen at the boiling point. […] The solution was kept overnight at room temperature and the excess of precipitated antiestrogen was removed by centrifugation. […]
value-type: solubility (mg/mL)
Give bare numbers, in mg/mL.

Qu. What value of measured solubility is listed for CN(C)CCOc1ccc(/C(=C(/CCCl)c2ccccc2)c2ccccc2)cc1 [toremifene] ?
Ans. 61.1

* * *

Assay: HPLC measurement of the solubility of the anti-estrogen in an aqueous solution of 2-hydroxypropyl cyclodextrin
Type: physicochemical
Settings: aqueous γ-hpc solution, 125 mg/ml; 125 mg Γ-HPC/ml of aqueous soln.; room temperature; read-out: Toremifene solubility (mg of toremifene / ml of cyclodextrin-water soln.)
value-type: solubility (mg/mL)
One number for each entry, in mg/mL.

Qu. Fill in: solubility of `CN(C)CCOc1ccc(/C(=C(/CCCl)c2ccccc2)c2ccccc2)cc1` is ___
Ans. 36.3

* * *

Test: HPLC measurement of the solubility of the anti-estrogen in an aqueous solution of 2-hydroxypropyl cyclodextrin
Type: physicochemical
Conditions: aqueous γ-hpc solution, 500 mg/ml; 500 mg Γ-HPC/ml of aqueous soln.; room temperature; read-out: Toremifene solubility (mg of toremifene / ml of cyclodextrin-water soln.)
value-type: solubility (mg/mL)
One number for each entry, in mg/mL.

Qu. Dear colleague, I am looking for the recorded solubility of the following compound: `CN(C)CCOc1ccc(/C(=C(/CCCl)c2ccccc2)c2ccccc2)cc1`
Ans. 125

* * *

Test: HPLC measurement of the solubility of the anti-estrogen in an aqueous solution of 2-hydroxypropyl cyclodextrin
Assay type: physicochemical
Conditions: water; 0 mg β-HPC/ml of aqueous soln.; room temperature; read-out: Toremifene solubility (mg of toremifene / ml of cyclodextrin-water soln.)
value-type: solubility
Answer format reminder: number followed by unit.

Qu. Any idea what solubility was measured for `CN(C)CCOc1ccc(/C(=C(/CCCl)c2ccccc2)c2ccccc2)cc1` ?
Ans. 0.3 mg/mL

* * *

Experiment: HPLC measurement of the solubility of the anti-estrogen in an aqueous solution of 2-hydroxypropyl cyclodextrin
Assay type: physicochemical
Conditions: aqueous 2-hydroxypropyl cyclodextrin solution; 500 mg β-HPC/ml of aqueous soln.; room temperature; read-out: Toremifene solubility (mg of toremifene / ml of cyclodextrin-water soln.)
value-type: solubility (mg/mL)
Numbers only, in mg/mL.

Qu. Dear colleague, I am looking for the recorded solubility of the following molecule: `CN(C)CCOc1ccc(/C(=C(/CCCl)c2ccccc2)c2ccccc2)cc1`
Ans. 87.7
